Tested on: NA, DA and 5-HT
Test: In vivo brain microdialysis: extracellular monoamines in striatum and frontal cortex
Parameters: species or system Sprague-Dawley rats
Settings: Rattus norvegicus, sc; 50 μmol/kg s.c., frontal cortex, n=1-3; read-out: 5-HT FC, maximum effect compared to baseline ± SEM
Provide the recorded response vs control in vivo at 50 µmol/kg for the entries that follow.
Answers are plain numbers, in %.

-- ask Look up response vs control in vivo at 50 µmol/kg: Fc1cc(OC2CNC2)cc(F)c1F
-- reply 752

Provide each entry's response vs control in vivo at 50 µmol/kg from the list below.
1. Fc1cc(F)cc(OC2CNC2)c1 [Example 52C]
2. Fc1cc(F)c(F)c(OC2CNC2)c1
3. Fc1ccc(OC2CNC2)c(F)c1F

-- reply
424
160
709

---

Target: Human 5-HT Transporter (SERT (h)) (Homo sapiens (Human))
Sequence (P31645 whole entry): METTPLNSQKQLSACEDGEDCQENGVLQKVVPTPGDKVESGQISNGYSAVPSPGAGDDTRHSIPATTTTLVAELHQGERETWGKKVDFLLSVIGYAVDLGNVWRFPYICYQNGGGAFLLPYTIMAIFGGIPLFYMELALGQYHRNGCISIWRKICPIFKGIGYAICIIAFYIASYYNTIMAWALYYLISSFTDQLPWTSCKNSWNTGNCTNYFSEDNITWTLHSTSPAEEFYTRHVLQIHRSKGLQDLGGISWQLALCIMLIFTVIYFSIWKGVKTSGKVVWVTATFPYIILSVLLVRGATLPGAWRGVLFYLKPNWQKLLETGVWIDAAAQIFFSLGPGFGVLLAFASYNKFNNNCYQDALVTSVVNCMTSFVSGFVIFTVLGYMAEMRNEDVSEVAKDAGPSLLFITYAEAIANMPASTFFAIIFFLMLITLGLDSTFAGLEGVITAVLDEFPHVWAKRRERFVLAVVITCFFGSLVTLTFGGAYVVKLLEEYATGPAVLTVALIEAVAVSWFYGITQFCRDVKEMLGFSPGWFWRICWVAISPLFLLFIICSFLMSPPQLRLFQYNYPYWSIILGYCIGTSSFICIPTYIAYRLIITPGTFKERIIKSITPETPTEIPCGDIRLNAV
Experiment: Radioligand binding assay, human 5-HT transporter ([3H]imipramine)
Details: 1 h; single concentration 1.0 E-5 M, duplicate, mean values
Tag: True if measured inhibition at 10 µM is not below 10%, False if it is.

Below are worked cases with known answers.
-- ask Does the compound Fc1cccc(OC2CNC2)c1F [Example 1A] have recorded inhibition at 10 µM that is 10% or more?
-- reply True

-- ask Does the compound Fc1c(F)c(F)c(OC2CNC2)c(F)c1F [Example 43] have recorded inhibition at 10 µM that is 10% or more?
-- reply False

-- ask Does the compound CCN1CC(Oc2c(F)c(F)cc(F)c2F)C1 [Example 39] have recorded inhibition at 10 µM that is 10% or more?
-- reply False

-- ask Does the compound Clc1ccc(OC2CNC2)cc1Cl [Reference Compound, reference compound] have recorded inhibition at 10 µM that is 10% or more?
-- reply True

-- ask Does the compound CN1CC(Oc2c(F)c(F)cc(F)c2F)C1 [Example 38] have recorded inhibition at 10 µM that is 10% or more?
-- reply False

Now, please, on to the next compound.
-- ask Does the compound Fc1cc(F)c(F)c(OC2CNC2)c1F [Example 3] have recorded inhibition at 10 µM that is 10% or more?
-- reply True

---

Target: UniProt P31645
recordedEndpoint: IC50 (µM)
Numbers only, in µM.

-- ask Look up IC50: Clc1ccc(OC2CNC2)cc1Cl [Reference Compound, reference compound]
-- reply 1.3

---

Target: Human Dopamine Transporter (DAT (h)) (Homo sapiens (Human), UniProt Q01959)
Sequence (Q01959 whole entry): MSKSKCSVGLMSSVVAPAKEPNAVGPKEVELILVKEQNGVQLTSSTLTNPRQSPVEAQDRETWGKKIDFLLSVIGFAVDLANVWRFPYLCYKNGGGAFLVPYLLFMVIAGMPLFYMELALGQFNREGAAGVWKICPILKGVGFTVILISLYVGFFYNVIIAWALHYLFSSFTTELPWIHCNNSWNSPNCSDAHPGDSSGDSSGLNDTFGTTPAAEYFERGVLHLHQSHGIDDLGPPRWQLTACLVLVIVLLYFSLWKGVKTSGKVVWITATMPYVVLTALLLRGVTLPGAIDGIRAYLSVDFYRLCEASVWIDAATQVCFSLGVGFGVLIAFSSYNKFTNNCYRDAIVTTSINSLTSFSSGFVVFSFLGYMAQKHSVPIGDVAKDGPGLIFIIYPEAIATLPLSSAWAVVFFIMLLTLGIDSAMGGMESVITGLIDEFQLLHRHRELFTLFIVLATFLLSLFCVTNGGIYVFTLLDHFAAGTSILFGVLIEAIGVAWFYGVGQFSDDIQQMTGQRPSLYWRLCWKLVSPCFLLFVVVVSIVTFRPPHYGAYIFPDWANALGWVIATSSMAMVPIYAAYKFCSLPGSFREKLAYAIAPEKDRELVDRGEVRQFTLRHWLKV
Test: Radioligand binding assay, human dopamine transporter ([3H]BTCP)
Conditions: dose-response curves
recordedEndpoint: IC50
The reply should consist of the numeric value with the unit placed after it.

-- ask Look up IC50: Clc1ccc(OC2CNC2)cc1Cl [Reference Compound, reference compound]
-- reply 3.5 µM

Next, consider the following molecule.
-- ask Look up IC50: Fc1cccc(OC2CNC2)c1F [Example 1A]
-- reply 21 µM

---

System: non-pre-treated Sprague-Dawley rats
Assay: Locomotor activity in drug-naïve rats (behavioural activity, distance traveled 0-60 min)
Format: in vivo
Conditions: 11 μmol/kg s.c., recorded for 60 minutes, control saline, n=5
Protocol: The effect of compounds in the present disclosure on locomotor activity in drug-naïve rats was also investigated. The animals were placed in the motility meters immediately after drug administration and locomotor activity was recorded for 60 minutes (counts/60 min±SEM). The results are presented as percent of control. […] The animals were placed in the motility meters immediately after drug administration and locomotor activity was recorded for 60 minutes (counts/60 min). […]
Marks after values point to notes of the source that are not given here.
Provide the recorded locomotor activity for the entries that follow.

-- ask Look up locomotor activity: Fc1cc(F)cc(OC2CNC2)c1.O=C(O)C(O)C(O)C(=O)O [Example 52B]
-- reply 93 ± 15 % of control means

-- ask Look up locomotor activity: Fc1cc(F)c(F)c(OC2CNC2)c1F [Example 3]
-- reply 114 ± 18 % of control means

-- ask Look up locomotor activity: CCN1CC(Oc2c(F)c(F)cc(F)c2F)C1 [Example 39]
-- reply 132 ± 14 % of control means

Provide each entry's locomotor activity from the list below.
1. Fc1cccc(OC2CNC2)c1F [Example 1A]
2. Clc1ccc(OC2CNC2)cc1Cl [Reference Compound, reference compound]
3. Fc1cc(F)c(F)c(OC2CNC2)c1 [Example 2]

-- reply
["135 ± 17 % of control means", "132 ± 10 % of control means", "66 ± 8** % of control means"]

-- ask Look up locomotor activity: Fc1cc(F)cc(OC2CNC2)c1 [Example 52C]
-- reply 128 ± 25 % of control means

The values you see were collected from patent US10875829B1.
